Origin of values: ChEMBL document CHEMBL1671679

- assay-comment: Half life in HIV-1 infected patient at 500 mg, po bid on day 10 coadministered with 200 mg, po bid zidovudine by LC-MS/MS analysis
- Format: ADME, organism-based
- experimental-parameters: human, in vivo
property-name: half-life (h)
Numeric answer only, unit h assumed.

Provide one value: measured half-life of Nc1nc(N)c2ncn([C@H]3CO[C@@H](CO)O3)c2n1 [AMDOXOVIR]
1.7

* * *

- assay-comment: Half life in HIV-1 infected patient at 300 mg, po bid on day 10 coadministered with 500 mg, po bid amdoxovir by LC-MS/MS analysis
- Type: ADME, organism-based
- experimental-parameters: human, in vivo
property-name: half-life (h)
Express your answer in h, writing the number without its unit.

Provide measured half-life value, entry: Cc1cn([C@H]2C[C@H](N=[N+]=[N-])[C@@H](CO)O2)c(=O)[nH]c1=O
2.4

* * *

- assay-comment: Half life in HIV-1 infected patient on day 10 by LC-MS/MS analysis
- Assay type: ADME, organism-based
- experimental-parameters: human, in vivo
property-name: half-life
Please append the unit to your numeric answer.

State its half-life for this compound: Cc1cn([C@H]2C[C@H](N=[N+]=[N-])[C@@H](CO)O2)c(=O)[nH]c1=O
2.2 h

* * *

- assay-comment: Apparent oral clearance in HIV-1 infected patient at 500 mg, po bid on day 10 coadministered with 300 mg, po bid zidovudine by LC-MS/MS analysis
- Type: ADME, organism-based
- experimental-parameters: human, in vivo
property-name: CL/F (L/h/kg)
Dear colleague, please return just the value in L/h/kg, with no unit written.

Please supply the value of reported CL/F for the item Nc1nc(N)c2ncn([C@H]3CO[C@@H](CO)O3)c2n1
3.81

* * *

- assay-comment: Drug level in HIV-1 infected patient urine on day 10 by LC-MS/MS analysis
- Type: ADME
- experimental-parameters: human, read-out: Drug uptake
property-name: dose excreted
Give the value; after it, write the unit.

Supply recorded dose excreted for Cc1cn([C@H]2C[C@H](N=[N+]=[N-])[C@@H](CO)O2)c(=O)[nH]c1=O here.
6.24%

* * *

- assay-comment: Tmax in HIV-1 infected patient at 500 mg, po bid on day 1 by LC-MS/MS analysis
- Type: ADME, organism-based
- experimental-parameters: human, in vivo
property-name: Tmax (h)
Give a bare numeral; the unit h is implied.

# return recorded Tmax for entry Nc1nc(N)c2ncn([C@H]3CO[C@@H](CO)O3)c2n1
1

* * *

- assay-comment: AUC (0 to 12 hrs) in HIV-1 infected patient at 500 mg, po bid on day 10 coadministered with 200 mg, po bid zidovudine by LC-MS/MS analysis
- Type: ADME, organism-based
- Set-up: dose 500 mg, time < 12 hr, route oral
- experimental-parameters: human, plasma
property-name: AUC at 12 h (ng·h/mL)
// note: answer is a bare numeric in ng·h/mL

Name the recorded AUC at 12 h of the item Nc1nc(N)c2ncn([C@H]3CO[C@@H](CO)O3)c2n1 [AMDOXOVIR] in your answer.
1730

* * *

- assay-comment: Apparent oral clearance in HIV-1 infected patient at 500 mg, po bid on day 10 by LC-MS/MS analysis
- Assay type: ADME, organism-based
- experimental-parameters: human, in vivo
property-name: CL/F (L/h/kg)
Quick reminder: number only, in L/h/kg, skip the unit.

Identify measured CL/F corresponding to Nc1nc(N)c2ncn([C@H]3CO[C@@H](CO)O3)c2n1 [AMDOXOVIR]
5.49
